# Test system: Influenza A virus
# TEST METHOD NOTES: Antiviral activity against group 2 influenza A H7N1 pseudotyped virus infected in A549 cells assessed as inhibition of viral entry incubated for 48 hrs by measuring luciferase activity by Neolite reporter gene assay
# Type: functional, organism-based
# PROTOCOL CONDITIONS: H7N1, A549, 48 h
The following compounds are listed with their measured IC50 values.
Output spec: scalar in nM, unitless text.

{"CHEMICAL STRUCTURE": "COc1ccc(-c2nc3ncccn3c2NC2CCCCC2)cc1", "UNITS TEXT": "nM", "IC50": 37}

Request: Fill in: IC50 of "CCCCOc1ccc(-c2nc3ncccn3c2NCc2c[nH]cn2)cc1" is ___
Response: 38000
